# assay_target: hGLP-1R (Homo sapiens, UniProt P43220)
# Sequence (P43220 24-463): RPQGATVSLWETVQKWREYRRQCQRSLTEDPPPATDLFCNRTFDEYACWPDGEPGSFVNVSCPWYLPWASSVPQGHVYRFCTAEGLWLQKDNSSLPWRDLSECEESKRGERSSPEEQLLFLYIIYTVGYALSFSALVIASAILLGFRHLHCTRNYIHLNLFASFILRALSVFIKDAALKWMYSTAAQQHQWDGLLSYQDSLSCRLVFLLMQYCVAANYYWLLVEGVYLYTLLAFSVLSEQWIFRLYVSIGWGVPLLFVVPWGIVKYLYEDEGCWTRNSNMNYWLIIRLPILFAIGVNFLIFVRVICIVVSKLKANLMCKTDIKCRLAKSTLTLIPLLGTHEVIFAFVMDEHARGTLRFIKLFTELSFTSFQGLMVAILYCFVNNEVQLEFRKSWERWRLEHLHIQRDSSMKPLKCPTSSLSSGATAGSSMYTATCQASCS
# test_protocol: cell-based or functional assay
Starred links: 1 amine or outer side, 2 acyl side, 3 side chain; linkers in the order of their positions; H or OH if unused. Non-standard residues stand in square brackets, D forms with d. Groups on a side chain read outwards from the residue. No end group written: not given here. *: point of attachment. C18 diacid = O=C(O)CCCCCCCCCCCCCCCCC(=O)*; γGlu = O=C(O)[C@H](CCC(=O)[*:2])N[*:1]; 4Pal = N[C@@H](Cc1ccncc1)C(=O)O; αMeL = CC(C)C[C@](C)(N)C(=O)O; Dab = NCC[C@H](N)C(=O)O; AEEA = NCCOCCOCC(=O)O; Aib = CC(C)(N)C(=O)O
metric_name: Relative cAMP EC50
Field note: include the unit after the figure.

Suppose we examine the binder YXQGTFTSDXSKXLDKKAQXAFIEYLIEXGPSSGAPPPSGS (synthetic construct; SITE 2: note = 2-Aminoisobutyric Acid; SITE 10: note = 3-(4-Pyridyl)-L-alanine; SITE 13: note = alpha-methyl-leucine; SITE 17: note = Lysine is chemically modified through conjugation of the epsilon-amino group of the Lysine side chain with (2-[2-(2-Amino-ethoxy)-ethoxy]-acetyl)) [Example 801] ; what Relative cAMP EC50 value has been reported?
0.938 nM

Suppose we examine the binder YXQGTFTSDXSQXLDKKAQXAFIEWLIEGGPSSGAPPPSGS (synthetic construct; SITE 2: note = 2-Aminoisobutyric Acid; SITE 10: note = 3-(4-Pyridyl)-L-alanine; SITE 13: note = alpha-methyl-leucine; SITE 17: note = Lysine is chemically modified through conjugation of the epsilon-amino group of the Lysine side chain with (gamma-Glu)2-CO-(CH2)16-CO2H; SITE 20:) [Example 872] ; what Relative cAMP EC50 value has been reported?
1.01 nM

Suppose we examine the binder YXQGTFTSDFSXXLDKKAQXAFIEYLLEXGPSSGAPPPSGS (synthetic construct; SITE 2: note = 2-Aminoisobutyric Acid; SITE 12: note = L-ornithine; SITE 13: note = alpha-methyl-leucine; SITE 17: note = Lysine is chemically modified through conjugation of the epsilon-amino group of the Lysine side chain with (2-[2-(2-Amino-ethoxy)-ethoxy]-acetyl)2-(gamma-Glu)) [Example 75] ; what Relative cAMP EC50 value has been reported?
4.4 nM

Suppose we examine the binder YXQGTFTSDFSXXLDKKAQXAFIEYLLEAGPSSGEPPPSGE (synthetic construct; SITE 2: note = 2-Aminoisobutyric Acid; SITE 12: note = L-ornithine; SITE 13: note = alpha-methyl-leucine; SITE 17: note = Lysine is chemically modified through conjugation of the epsilon-amino group of the Lysine side chain with (2-[2-(2-Amino-ethoxy)-ethoxy]-acetyl)-(gamma-Glu)) [Example 135] ; what Relative cAMP EC50 value has been reported?
3.3 nM

Suppose we examine the binder YXQGTXTSDXXIXLDXKAQXEFIEXLVEGGPSSGEPPPSGSE (synthetic construct; SITE 2: note = 2-Aminoisobutyric Acid; SITE 6: note = alpha-methyl-2-fluoro-L-phenylalanine; SITE 10: note = 3-(4-Pyridyl)-L-alanine; SITE 11: note = alpha-methyl-L-serine; SITE 13: note = alpha-methyl-leucine; SITE 16: note = L-ornithine; SITE 17: note = Lysine is chemically mo) [Example 752] ; what Relative cAMP EC50 value has been reported?
0.274 nM

Suppose we examine the binder Y[Aib]QGTFTSD[4Pal]S[Dab][αMeL]LDKK([AEEA-γGlu-C18 diacid])AQ[Aib]AFIEYLIE[Aib]GPSSGAPPPSGS-NH2 [Example 803] ; what Relative cAMP EC50 value has been reported?
2.02 nM

Suppose we examine the binder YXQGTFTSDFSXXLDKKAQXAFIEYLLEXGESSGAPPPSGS (non-natural residues; lipidated Lys; C-terminal amide; synthetic construct; SITE 2: note = 2-Aminoisobutyric Acid; SITE 12: note = L-ornithine; SITE 13: note = alpha-methyl-leucine; SITE 17: note = Lysine is chemically modified through conjugation of the epsilon-amino group of the Lysine side chain with (2-[2-(2-Amino-ethoxy)-ethoxy]-acetyl)-(gamma-Glu)) [Example 240] ; what Relative cAMP EC50 value has been reported?
3.62 nM

Suppose we examine the binder YXQGTFTSDXSXXLDKKAQXAFIEYLLEAGPSSXAPPPSGT (synthetic construct; SITE 2: note = 2-Aminoisobutyric Acid; SITE 10: note = 3-(4-Pyridyl)-L-alanine; SITE 12: note = L-ornithine; SITE 13: note = alpha-methyl-leucine; SITE 17: note = Lysine is chemically modified through conjugation of the epsilon-amino group of the Lysine side chain with (2-[2-(2-) [Example 275] ; what Relative cAMP EC50 value has been reported?
4.93 nM

Suppose we examine the binder YXQGTXTSDXXIXLDXKAQXEFIEXLVEGGPSSGAPPPSGE (C-terminal amide; lysine acylated with (γ-Glu)2-C18 diacid; synthetic construct; SITE 2: note = 2-Aminoisobutyric Acid; SITE 6: note = alpha-methyl-2-fluoro-L-phenylalanine; SITE 10: note = 3-(4-Pyridyl)-L-alanine; SITE 11: note = alpha-methyl-L-serine; SITE 13: note = alpha-methyl-leucine; SITE 16: note = L-ornithine; SITE 17: note = Lysine is chemically mo) [Example 1160] ; what Relative cAMP EC50 value has been reported?
0.365 nM

Suppose we examine the binder YXQGTFTSDXSQXLDKKAQXAFIEXLIEXGPSSGEPPPSGE (Aib, 4Pal, αMeL, Me4Pal; acylated Lys; C-terminal amide; synthetic construct; SITE 2: note = 2-Aminoisobutyric Acid; SITE 10: note = 3-(4-Pyridyl)-L-alanine; SITE 13: note = alpha-methyl-leucine; SITE 17: note = Lysine is chemically modified through conjugation of the epsilon-amino group of the Lysine side chain with (gamma-Glu)2-CO-(CH2)16-CO2H; SITE 20:) [Example 1123] ; what Relative cAMP EC50 value has been reported?
4.47 nM

Suppose we examine the binder YXQGTFTSDXSQXLDXKAQXAFIEXLIAXGPSSGAPPPSGSEE (non-natural residues, lipidated Lys, C-terminal amide; synthetic construct; SITE 2: note = 2-Aminoisobutyric Acid; SITE 10: note = 3-(4-Pyridyl)-L-alanine; SITE 13: note = alpha-methyl-leucine; SITE 16: note = L-ornithine; SITE 17: note = Lysine is chemically modified through conjugation of the epsilon-amino group of the Lysine side chain with (gamma-Gl)) [Example 1107] ; what Relative cAMP EC50 value has been reported?
0.51 nM

Suppose we examine the binder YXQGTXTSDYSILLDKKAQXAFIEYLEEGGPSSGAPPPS (synthetic construct; SITE 2: note = 2-Aminoisobutyric Acid; SITE 6: note = alpha-methyl-2-fluoro-L-phenylalanine; SITE 17: note = Lysine is chemically modified through conjugation of the epsilon-amino group of the Lysine side chain with (gamma-Glu)2-CO-(CH2)16-CO2H; SITE 20: note = 2-Aminoisobutyric) [Example 406] ; what Relative cAMP EC50 value has been reported?
0.208 nM
